Hi there, I'd appreciate the recorded TGI for every entry that follows.
System: COLO 205 colon
assayExplanation: NCI tumour cell line growth inhibition, 48 h

Consider the following items and state reported TGI for each.
1. O=C1/C(=C/c2ccco2)NC(=S)N1CN1CCCCC1
2. O=c1[nH]c2cc(Cl)ccc2nc1/C(=N\Nc1ccccc1)C(O)c1ccc(Cl)c(Cl)c1 (stereo not given)
3. COC(=O)/C=C/c1cc(OC(C)=O)c2c(c1)[C@@H](C(=O)OC)[C@H](c1ccc(OC(C)=O)c(OC(C)=O)c1)O2
4. Cc1ccc2nc(-c3ccccc3)cc(=O)n2c1
5. Nc1ncc2c(n1)-c1ccccc1OC2N1CCCCC1 (stereo not given)

1. > 100 µM
2. > 100 µM
3. 24.7 µM
4. > 100 µM
5. > 100 µM

---

Test system: K-562 leukemia
assayExplanation: NCI tumour cell line growth inhibition, 48 h; in the data active = GI50 below about 0.43 µM; inactive = the rest
Field 'call' accepts active, inactive

| compound | answerLabel |
| --- | --- |
| COC(=O)/C=C/c1cc(OC(C)=O)c2c(c1)[C@@H](C(=O)OC)[C@H](c1ccc(OC(C)=O)c(OC(C)=O)c1)O2 | active |
| COC(=O)[C@]12CC[C@@H](C)[C@H](C)[C@@H]1C1=CC[C@@H]3[C@@]4(C)C[C@@H](O)[C@H](O)[C@@](C)(CO)[C@@H]4[C@H](O)C[C@@]3(C)[C@]1(C)CC2 | inactive |
| COc1c2ccccc2c(OC)c2[nH]c(=O)ccc12 | inactive |
| CN1CCN(C(=O)COc2ccc(C34CC5CC(CC(C5)C3)C4)cc2)CC1 | inactive |
| C=C1C[C@H](O)[C@H](Br)C(C)(C)[C@@]12CCC(C)=C(Cl)C2 | inactive |

Could you kindly confirm the outcome this assay logged for O=C1NC(=NCc2ccccc2)S/C1=C\c1ccc2ncccc2c1 ?
inactive

Identify the outcome logged in this assay for the compound shown: CCCCCCCCCCSC(=N)N (tested in a mixture with another compound)
inactive

// return assay outcome for CN(C)CC(O)c1ccc(/C=C/c2ccc(Cl)cc2)cc1 (centres undefined)
inactive

Hey, what did the test say about COc1cc(-c2nc3sccn3c2-c2ccnc(NCCNS(=O)(=O)c3ccc(F)cc3)n2)ccc1F ?
inactive

---

Test system: SR leukemia
assayExplanation: NCI tumour cell line growth inhibition, 48 h; in the data active = GI50 below about 0.43 µM; inactive = the rest
Valid outcomes are listed here; reply with one: TRUE for active, FALSE for inactive

Test call for this compound, please: CCOC(=O)n1cc(C2=C(c3ccc(OC)c(OC)c3)COC2=O)c2ccccc21
TRUE

Recorded test outcome, item CC(C)(C)[Si](C)(C)OC1[C@@H](O[Si](C)(C)C(C)(C)C)[C@@H](CNC(=O)NC(=O)C(F)(F)F)O[C@H]1n1cnc2c(NC(=O)Nc3ccccc3)ncnc21 (some centres undefined)
FALSE

Dear all, I need the recorded test outcome for COc1ccc2ncnc(Nc3ccc(OCc4ccccc4)cc3)c2c1 , thank you.
FALSE

Kindly provide the recorded test outcome for the following compound: Fc1cc(-c2nnc3n2N=C(c2ccc(Cl)cc2)CS3)c(Cl)cc1Cl
FALSE

Name the outcome recorded for COCCn1cc(-c2nc(-c3cc4cccnc4[nH]3)cs2)c2cc(OC)ccc21 in the assay.
FALSE

What did the test return for C=C1C[C@H](O)[C@H](Br)C(C)(C)[C@@]12CCC(C)=C(Cl)C2 ?
TRUE

Which outcome was assigned to O=C1OCC2=C1C(c1cccc(Br)c1)c1cc3c(cc1N2CCO)OCCO3 (centres undefined) in this test?
TRUE

I would be grateful if you could indicate the recorded call for O=C(Nc1nn2c(-c3cc(C(F)(F)F)cc(C(F)(F)F)c3)nnc2s1)C1CCCC1 .
FALSE

Call for entry Cc1cc(Nc2ccc(C)c(Cl)c2)n2nc(C(F)(F)F)nc2n1 :
FALSE

---

System: LOX IMVI melanoma
assayExplanation: NCI tumour cell line growth inhibition, 48 h
Classification field: Met = TGI at or over 9 µM; Not met = TGI under 9 µM.

Would you please look over these solved cases?
| compound | answerLabel |
| --- | --- |
| CC(=O)Nc1cc2ccc(=O)oc2cc1Cl | Met |
| CC1(C)[C@@H](Cn2cc(I)c(=O)[nH]c2=O)CC[C@@]1(C)CO | Met |
| O=C(O)CSc1n[nH]c(-c2ccccc2O)n1 | Met |
| COC(=O)c1cccc(C)c1C1CN=NC12Cc1cc(C)cc(C)c1C2=O (configuration not stated) | Met |
| C=C1C(=O)O[C@@H]2/C=C(C)/C=C\[C@@H]3O[C@@]3(C)C[C@@H](O)C12 (some centres not stated) | Met |
| Oc1ccc(NCn2c(=S)sc3ccccc32)cc1 | Met |

Attention now shifts to the item below.
TGI >= 9 µM for O=S1C(=c2ccc(=C3Sc4ccccc4S3)cc2)Sc2ccccc21 (configuration not stated) ?
Met

---

System: SF-539 CNS
assayExplanation: NCI tumour cell line growth inhibition, 48 h; in the data active means GI50 below about 0.43 µM; inactive means the rest
Give one outcome, nothing more. List: Yes for active, No for inactive

Past entries and their recorded results:
| molecule | answerLabel |
| --- | --- |
| c1ccc(Nc2ncc(-c3ccccc3)o2)cc1 | No |
| CCCCCCCCCCSC(=N)N (tested in a mixture with another compound) | No |
| O=C1NC(=NCc2ccccc2)S/C1=C\c1ccc2ncccc2c1 | No |
| O=C1c2c(F)c(F)c(F)c(F)c2C(=O)N1c1ccc(F)cc1F | No |
| CN(C)CC(O)c1ccc(/C=C/c2ccc(Cl)cc2)cc1 (stereo not drawn) | No |

Fill in: this test's call for O=C(Nc1nn2c(-c3cc(C(F)(F)F)cc(C(F)(F)F)c3)nnc2s1)C1CCCC1 is ___
No

Give the logged outcome of this assay for the following molecule: CC(=O)N[C@@H](Cc1ccc(OP(=O)(O)O)cc1)C(=O)N[C@H]1CCC(=O)N2CCC[C@@H](C(=O)Nc3cccc4ccccc34)N2C1=O
No

Status in this test for NC(=S)N/N=C\c1nccc2c(C(F)(F)F)cccc12 ?
Yes

---

System: NCI/ADR-RES ovarian
assayExplanation: NCI tumour cell line growth inhibition, 48 h; in the data active = GI50 below about 0.43 µM; inactive = the rest
Could you please pick one outcome from this set? yes (1) (active), no (0) (inactive)

| compound | answerLabel |
| --- | --- |
| COc1ccc2ncnc(Nc3ccc(OCc4ccccc4)cc3)c2c1 | no (0) |
| COC(=O)[C@]12CC[C@@H](C)[C@H](C)[C@@H]1C1=CC[C@@H]3[C@@]4(C)C[C@@H](O)[C@H](O)[C@@](C)(CO)[C@@H]4[C@H](O)C[C@@]3(C)[C@]1(C)CC2 | no (0) |
| O=C1c2c(F)c(F)c(F)c(F)c2C(=O)N1c1ccc(F)cc1F | no (0) |
| CCCCCCOc1ccc(/C=N/Nc2cc(C)nc3ccc(Cl)cc23)cc1 | no (0) |
| O=C(Nc1cccc(C(F)(F)F)c1)Nc1cccc(C(F)(F)F)c1 | no (0) |
| N=C(N)c1ccc(OCCCCCCCCCCOc2ccc(C(=N)N)cc2)cc1 | no (0) |

Test call for this compound, please: CC(=O)N[C@@H](Cc1ccc(OP(=O)(O)O)cc1)C(=O)N[C@H]1CCC(=O)N2CCC[C@@H](C(=O)Nc3cccc4ccccc34)N2C1=O
no (0)

For this compound, state the assay outcome: Cc1ccc(-c2nc(N3CCNCC3)c3oc(-c4ccc(C)cc4)nc3n2)cc1
no (0)

Lab log entry: C=C1C(=O)O[C@H]2[C@H]1CC/C(CNC(=O)c1cc3ccccc3[nH]1)=C\CC[C@@]1(C)O[C@@H]21 — outcome as called in the assay?
no (0)

Could you please tell me the result logged for O=C(Nc1nn2c(-c3cc(C(F)(F)F)cc(C(F)(F)F)c3)nnc2s1)C1CCCC1 in this assay?
no (0)

What classification did c1ccc(-c2n(Cc3ccc4ccccc4n3)cc[n+]2Cc2ccc3ccccc3c2)cc1 end up with in this test?
no (0)

---

System: T-47D breast
assayExplanation: NCI tumour cell line growth inhibition, 48 h; in the data active = GI50 below about 0.43 µM; inactive = the rest
Parameter call: string, one of 1 (active), 0 (inactive)

Below, 3 compounds whose answers are already recorded.
| compound | answerLabel |
| --- | --- |
| COc1ccc(Cn2c(Br)c3c(c2Br)-c2nc(N)sc2CC3)cc1 | 0 |
| CC(C)(C)[Si](C)(C)OC1[C@@H](O[Si](C)(C)C(C)(C)C)[C@@H](CNC(=O)NC(=O)C(F)(F)F)O[C@H]1n1cnc2c(NC(=O)Nc3ccccc3)ncnc21 (some centres not stated) | 0 |
| c1ccc(Nc2ncc(-c3ccccc3)o2)cc1 | 0 |

Please share the test call associated with Cc1cc2c(cc1C)[n+](=O)c(C(=O)c1ccccc1)c(C(F)F)n2[O-] .
0

Could you kindly confirm the outcome this assay logged for O=C1OCC2=C1C(c1cccc(Br)c1)c1cc3c(cc1N2CCO)OCCO3 (configuration not stated) ?
1

Hi, sorry to bother you, what did the test record for COC(=O)c1cc2oc(/C=C3/SC(=S)N(NC(C)=O)C3=O)cc2n1C ?
0

Per the assay record, what outcome was assigned to Cc1ccc(NC2=C3CCCCC3OC2=O)cc1 (configuration not stated) ?
0

Recorded test call requested for CCCCCCOc1ccc(/C=N/Nc2cc(C)nc3ccc(Cl)cc23)cc1
0

Short answer needed: outcome of this test for NC(=S)N/N=C\c1nccc2c(C(F)(F)F)cccc12 ?
1

What did the test return for C=C1C[C@H](O)[C@H](Br)C(C)(C)[C@@]12CCC(C)=C(Cl)C2 ?
1

Short answer needed: outcome of this test for Cc1ccc(-c2nc(N3CCNCC3)c3oc(-c4ccc(C)cc4)nc3n2)cc1 ?
0

Tell me the assay call for O=C1NC(=NCc2ccccc2)S/C1=C\c1ccc2ncccc2c1 please.
0
